Assay target: human GLP-1 receptor (human, UniProt P43220 24-463)
Assay name: cell-based or functional assay
Positions of bridges follow the written chain, without caps; N, C: chain ends. Non-standard residues stand in square brackets, D forms with d. No end group written: not given here. *: point of attachment. Acetyl(2-(4-imidazolyl)) = O=C(Cc1c[nH]cn1)*; Aib = CC(C)(N)C(=O)O
Below is a list of entries, each paired with its recorded In vitro Activity Compared to Native Peptide (%) vs. GLP-1 value.
Please state the number and follow it with the unit.

Examples with answers:
Reported In vitro Activity Compared to Native Peptide (%) vs. GLP-1 for Y[Aib]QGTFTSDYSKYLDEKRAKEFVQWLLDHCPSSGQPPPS (bridge 16-20) [triple agonist of SEQ ID NO: 96] : what is it?
34.4%

Reported In vitro Activity Compared to Native Peptide (%) vs. GLP-1 for H[Aib]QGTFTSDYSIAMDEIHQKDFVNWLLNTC (bridge 16-20) [triple agonist of SEQ ID NO: 57] : what is it?
11.7%

Reported In vitro Activity Compared to Native Peptide (%) vs. GLP-1 for H[Aib]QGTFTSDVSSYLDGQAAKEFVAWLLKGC [triple agonist of SEQ ID NO: 6] : what is it?
17%

Reported In vitro Activity Compared to Native Peptide (%) vs. GLP-1 for Y[Aib]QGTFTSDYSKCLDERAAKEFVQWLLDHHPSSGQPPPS (bridge 16-20) [triple agonist of SEQ ID NO: 69] : what is it?
24.3%

Reported In vitro Activity Compared to Native Peptide (%) vs. GLP-1 for [Acetyl(2-(4-imidazolyl))][Aib]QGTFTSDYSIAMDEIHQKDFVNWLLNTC (bridge 16-20) [triple agonist of SEQ ID NO: 87] : what is it?
0.9%

Next:
Reported In vitro Activity Compared to Native Peptide (%) vs. GLP-1 for H[Aib]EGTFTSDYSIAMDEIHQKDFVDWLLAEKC (bridge 16-20) [triple agonist of SEQ ID NO: 80] : what is it?
8.1%

Reported In vitro Activity Compared to Native Peptide (%) vs. GLP-1 for H[Aib]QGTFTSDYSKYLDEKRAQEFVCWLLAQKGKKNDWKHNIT [triple agonist of SEQ ID NO: 28] : what is it?
17.2%
